We begin with a simple list: items and their reported binding to iC3b.
TEST_TARGET: iC3b (Homo sapiens, UniProt P01024)
Sequence (P01024 23-667 limits assumed): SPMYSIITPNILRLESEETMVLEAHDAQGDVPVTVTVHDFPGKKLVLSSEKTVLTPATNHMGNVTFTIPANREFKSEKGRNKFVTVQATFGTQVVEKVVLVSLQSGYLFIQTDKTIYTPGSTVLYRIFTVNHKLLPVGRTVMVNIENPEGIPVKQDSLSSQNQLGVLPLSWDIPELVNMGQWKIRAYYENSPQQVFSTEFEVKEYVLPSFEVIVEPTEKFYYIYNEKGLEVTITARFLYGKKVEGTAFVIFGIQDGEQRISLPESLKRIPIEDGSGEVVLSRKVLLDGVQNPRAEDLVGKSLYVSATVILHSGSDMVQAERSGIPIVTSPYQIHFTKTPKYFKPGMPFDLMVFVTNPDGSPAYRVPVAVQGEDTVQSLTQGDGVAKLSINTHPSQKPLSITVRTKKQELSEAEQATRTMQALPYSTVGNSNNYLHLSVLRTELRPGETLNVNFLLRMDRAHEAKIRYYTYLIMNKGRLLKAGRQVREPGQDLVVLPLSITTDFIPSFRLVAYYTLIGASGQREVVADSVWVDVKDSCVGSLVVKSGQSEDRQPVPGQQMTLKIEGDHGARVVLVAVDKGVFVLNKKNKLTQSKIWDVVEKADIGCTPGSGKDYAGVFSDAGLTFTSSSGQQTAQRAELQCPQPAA
Sequence (P01024 749-1303 limits assumed): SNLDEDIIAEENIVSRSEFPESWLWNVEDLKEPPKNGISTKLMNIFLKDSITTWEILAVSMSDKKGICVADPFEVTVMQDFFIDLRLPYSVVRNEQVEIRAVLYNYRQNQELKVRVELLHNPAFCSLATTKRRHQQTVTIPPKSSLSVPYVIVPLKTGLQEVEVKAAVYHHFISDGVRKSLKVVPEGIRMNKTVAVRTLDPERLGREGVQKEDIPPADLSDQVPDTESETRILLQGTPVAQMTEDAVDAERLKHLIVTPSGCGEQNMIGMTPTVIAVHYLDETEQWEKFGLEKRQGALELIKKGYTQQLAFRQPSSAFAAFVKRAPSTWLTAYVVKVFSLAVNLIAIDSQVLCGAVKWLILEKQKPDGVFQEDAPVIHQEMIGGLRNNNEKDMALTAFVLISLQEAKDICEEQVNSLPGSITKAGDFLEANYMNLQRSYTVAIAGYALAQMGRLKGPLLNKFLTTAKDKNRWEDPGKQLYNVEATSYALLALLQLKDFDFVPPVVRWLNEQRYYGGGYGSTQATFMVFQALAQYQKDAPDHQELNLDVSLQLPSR
Sequence (P01024 1321-1663 limits assumed): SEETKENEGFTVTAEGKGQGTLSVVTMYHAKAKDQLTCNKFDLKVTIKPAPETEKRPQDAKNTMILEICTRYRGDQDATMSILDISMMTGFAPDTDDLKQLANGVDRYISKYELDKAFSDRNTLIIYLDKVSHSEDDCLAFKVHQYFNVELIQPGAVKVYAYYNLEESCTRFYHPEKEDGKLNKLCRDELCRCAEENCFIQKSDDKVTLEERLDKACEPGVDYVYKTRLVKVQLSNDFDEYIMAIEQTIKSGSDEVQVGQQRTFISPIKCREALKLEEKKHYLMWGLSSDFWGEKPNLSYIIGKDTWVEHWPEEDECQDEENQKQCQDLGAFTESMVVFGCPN
TEST_NAME: Binding profile: binding to iC3b
STATED_CONDITIONS: relative to the binding of the negative control mIgG2 antibody
Output: the number by itself.

3G8: mouse anti-C3 monoclonal antibody; VH SEQ ID NO:93, VL SEQ ID NO:94 (antibody, V domains shown) VH: EIQLQQSGAELVKPGASVKISCMASGYSFTGYNMNWVKQSHGKGLEWIGNINPYYDSTSYNQKFKGKATLTVDKSSSTAYMQLNSLTSEDSAVYYCARENYDFVGFAYWGQGTLVTVSA VL: QIVLSQSPAILSASPGEKVTMTCRASSSVSYMHWFQQKPGSSPKPWIYVTSNLASGVPPRFSGSGSGTSYSLTISRVEAEDAATYYCQQWSTNPLTFGAGTKLELK = 0.25

As a next step, examine the molecule that follows.
The molecule listed as 38G10: mouse anti-C3 monoclonal antibody; VH SEQ ID NO:18, VL SEQ ID NO:19 (antibody, V domains shown) VH: EVQLQQSGPELVKPGDSVKMSCKASGYTFTDFYMDWVKQSHGKSLEWIGYIYPHNGGTTYNQNFTGKATLTVDKSSNTAYMELHSLTSEDSAVYYCARRGGFDFDYWGQGTTLTVSS VL: NIVMTQSPKSMSLSVGERVTLRCKASENVDTYVSWYQQKPEQSPKLLIYGASNRYTGVPDRFTGSGSATEFTLTISSVQAEDLVGYHCGQSHSYPLTFGAGTKLELK has a reported binding to iC3b of 0.06
